# tested-on: hERG (human ether-a-go-go-related gene) potassium channel (Homo sapiens, UniProt Q12809)
# Sequence (Q12809 whole entry): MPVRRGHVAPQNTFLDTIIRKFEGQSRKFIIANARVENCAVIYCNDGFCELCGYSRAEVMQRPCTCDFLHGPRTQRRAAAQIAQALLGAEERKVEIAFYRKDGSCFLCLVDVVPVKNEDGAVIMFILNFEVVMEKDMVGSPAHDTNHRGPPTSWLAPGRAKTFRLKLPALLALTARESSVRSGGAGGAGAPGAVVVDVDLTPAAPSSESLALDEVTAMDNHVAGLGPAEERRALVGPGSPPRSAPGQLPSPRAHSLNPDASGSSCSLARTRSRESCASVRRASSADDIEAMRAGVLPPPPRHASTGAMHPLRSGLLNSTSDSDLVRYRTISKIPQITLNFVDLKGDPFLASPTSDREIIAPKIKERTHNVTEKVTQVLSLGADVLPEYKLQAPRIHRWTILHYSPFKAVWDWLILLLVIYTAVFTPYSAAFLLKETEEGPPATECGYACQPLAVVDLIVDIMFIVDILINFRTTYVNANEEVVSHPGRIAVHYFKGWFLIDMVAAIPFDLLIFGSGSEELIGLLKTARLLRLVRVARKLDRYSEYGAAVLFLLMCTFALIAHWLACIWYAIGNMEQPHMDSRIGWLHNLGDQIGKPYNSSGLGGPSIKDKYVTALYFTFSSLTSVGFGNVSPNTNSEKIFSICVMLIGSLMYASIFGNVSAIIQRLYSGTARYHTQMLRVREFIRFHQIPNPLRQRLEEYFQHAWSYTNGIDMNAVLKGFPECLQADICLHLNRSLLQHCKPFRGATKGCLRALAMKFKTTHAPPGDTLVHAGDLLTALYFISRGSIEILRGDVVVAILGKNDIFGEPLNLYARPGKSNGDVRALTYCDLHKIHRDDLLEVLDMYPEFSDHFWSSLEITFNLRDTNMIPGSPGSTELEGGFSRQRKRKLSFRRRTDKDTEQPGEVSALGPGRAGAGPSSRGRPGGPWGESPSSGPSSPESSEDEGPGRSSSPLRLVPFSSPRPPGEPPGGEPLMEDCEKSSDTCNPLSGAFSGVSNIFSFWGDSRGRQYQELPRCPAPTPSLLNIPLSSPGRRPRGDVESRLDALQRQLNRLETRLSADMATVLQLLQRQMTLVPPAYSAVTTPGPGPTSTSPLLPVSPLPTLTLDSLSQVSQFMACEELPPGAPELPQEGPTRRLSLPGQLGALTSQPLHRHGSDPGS
# assay-method-text: QPatch automated patch-clamp hERG activator 4-concentration EC50 assay
# condition-notes: increase of hERG tail current amplitude at 7 second (TL7); 10 uM; hERG stably expressed in CHO cells
Some compounds, each annotated with its measured % change@TL7@10 uM.
property-measured: % change@TL7@10 uM

compound="Fc1cc2cc(-c3nnn[nH]3)oc2cc1CNc1ccc(Cl)c(Br)c1 [Example 180]" observed_value=231%
compound="O=C(O)c1cc2ccc(CNc3cccc(N4CCOCC4)c3)cc2o1 [Example 109]" observed_value=81%
compound="Fc1c(CNc2ccc(OC(F)(F)F)c(Br)c2)ccc2oc(-c3nnn[nH]3)cc12 [Example 140]" observed_value=290%
compound="O=C(O)c1cc2ccc(CNc3ccc(SC(F)(F)F)c(Cl)c3)cc2o1 [Example 87]" observed_value=326%
compound="CC(C)Oc1ccc(NCc2cc3oc(-c4nnn[nH]4)cc3cc2Cl)cc1C(F)(F)F [Example 18]" observed_value=409%
compound="O=C(O)c1cc2ccc(CNc3ccc(OCC(F)(F)F)c(Cl)c3)cc2o1 [Example 108]" observed_value=82%
compound="CCCc1ccc(NCc2ccc3oc(-c4nnn[nH]4)c(C)c3c2)cc1C(F)(F)F [Example 82]" observed_value=39%
compound="FC(F)(F)Oc1cc(Cl)cc(NCc2cc3oc(-c4nnn[nH]4)cc3cc2Cl)c1 [Example 212]" observed_value=116%
compound="FC(F)(F)COc1ccc(NCc2cc3cc(-c4nnn[nH]4)oc3cc2Cl)cc1C(F)(F)F [Example 135]" observed_value=181%
compound="O=C(O)c1cc2cc(F)c(CNc3ccc(OC(F)F)c(C(F)(F)F)c3)cc2o1 [Example 230]" observed_value=244%

====

# tested-on: hERG (human ether-a-go-go-related gene) potassium channel (Homo sapiens, UniProt Q12809)
# assay-method-text: QPatch automated patch-clamp hERG activator 4-concentration EC50 assay
# condition-notes: increase of hERG tail current amplitude at 7 second (TL7); 10 uM; hERG stably expressed in CHO cells
Reported % change@TL7@10 uM values follow for various molecules
property-measured: % change@TL7@10 uM (%)

molecule=CCc1ccc(NCc2cc3oc(-c4nnn[nH]4)cc3cc2F)cc1Br tested_on="hERG (human ether-a-go-go-related gene) potassium channel (Homo sapiens, UniProt Q12809)" property_measured="% change@TL7@10 uM" observed_value=322
molecule="CC(Nc1ccc(OC(F)(F)F)c(Cl)c1)c1ccc2oc(-c3nnn[nH]3)cc2c1 (stereo not drawn)" tested_on="hERG (human ether-a-go-go-related gene) potassium channel (Homo sapiens, UniProt Q12809)" property_measured="% change@TL7@10 uM" observed_value=118
molecule=CCOc1ccc(NCc2cc3oc(-c4nnn[nH]4)cc3cc2Cl)cc1Cl tested_on="hERG (human ether-a-go-go-related gene) potassium channel (Homo sapiens, UniProt Q12809)" property_measured="% change@TL7@10 uM" observed_value=116
molecule=O=C(O)c1cc2cc(F)c(CNc3ccc(OC(F)(F)F)c(Cl)c3)cc2o1 tested_on="hERG (human ether-a-go-go-related gene) potassium channel (Homo sapiens, UniProt Q12809)" property_measured="% change@TL7@10 uM" observed_value=182
molecule=Cc1cc2cc(NCc3ccc4cc(-c5nn[nH]n5)oc4c3)cc(Cl)c2o1 tested_on="hERG (human ether-a-go-go-related gene) potassium channel (Homo sapiens, UniProt Q12809)" property_measured="% change@TL7@10 uM" observed_value=205
molecule=CCCc1ccc(NCc2ccc3cc(-c4nnn[nH]4)oc3c2)cc1Br tested_on="hERG (human ether-a-go-go-related gene) potassium channel (Homo sapiens, UniProt Q12809)" property_measured="% change@TL7@10 uM" observed_value=159
molecule=CC(C)Oc1ccc(NCc2cc3oc(-c4nnn[nH]4)cc3cc2F)cc1C(F)(F)F tested_on="hERG (human ether-a-go-go-related gene) potassium channel (Homo sapiens, UniProt Q12809)" property_measured="% change@TL7@10 uM" observed_value=250
molecule=CCCc1ccc(NCc2ccc3cc(C(=O)O)oc3c2)cc1C(F)(F)F tested_on="hERG (human ether-a-go-go-related gene) potassium channel (Homo sapiens, UniProt Q12809)" property_measured="% change@TL7@10 uM" observed_value=193
molecule=Cc1c(-c2nnn[nH]2)oc2ccc(CNc3ccc(SC(F)(F)F)c(Cl)c3)cc12 tested_on="hERG (human ether-a-go-go-related gene) potassium channel (Homo sapiens, UniProt Q12809)" property_measured="% change@TL7@10 uM" observed_value=200
molecule=Fc1cc(NCc2ccc3cc(-c4nn[nH]n4)oc3c2)ccc1OC(F)(F)F tested_on="hERG (human ether-a-go-go-related gene) potassium channel (Homo sapiens, UniProt Q12809)" property_measured="% change@TL7@10 uM" observed_value=148
molecule=FC(F)(F)Oc1ccc(NCc2ccc3cc(-c4nn[nH]n4)oc3c2)cc1Cl tested_on="hERG (human ether-a-go-go-related gene) potassium channel (Homo sapiens, UniProt Q12809)" property_measured="% change@TL7@10 uM" observed_value=139
molecule=Clc1ccc(NCc2cc3cc(-c4nnn[nH]4)oc3cc2Cl)cc1Cl tested_on="hERG (human ether-a-go-go-related gene) potassium channel (Homo sapiens, UniProt Q12809)" property_measured="% change@TL7@10 uM" observed_value=112
molecule=CCCc1ccc(NCc2ccc3oc(-c4nnn[nH]4)cc3c2)cc1C(F)(F)F tested_on="hERG (human ether-a-go-go-related gene) potassium channel (Homo sapiens, UniProt Q12809)" property_measured="% change@TL7@10 uM" observed_value=261
molecule=CCCc1ccc(NCc2ccc3cc(C(=O)O)oc3c2)cc1Cl tested_on="hERG (human ether-a-go-go-related gene) potassium channel (Homo sapiens, UniProt Q12809)" property_measured="% change@TL7@10 uM" observed_value=212
molecule=FC(F)(F)c1cc(NCc2ccc3cc(-c4nn[nH]n4)oc3c2)ccc1Br tested_on="hERG (human ether-a-go-go-related gene) potassium channel (Homo sapiens, UniProt Q12809)" property_measured="% change@TL7@10 uM" observed_value=164
molecule=FC(F)(F)Oc1cc(NCc2ccc3cc(-c4nn[nH]n4)oc3c2)ccc1Br tested_on="hERG (human ether-a-go-go-related gene) potassium channel (Homo sapiens, UniProt Q12809)" property_measured="% change@TL7@10 uM" observed_value=123
molecule=CCCc1ccc(NCc2ccc3oc(C(=O)O)cc3c2)cc1Cl tested_on="hERG (human ether-a-go-go-related gene) potassium channel (Homo sapiens, UniProt Q12809)" property_measured="% change@TL7@10 uM" observed_value=210
molecule=CCc1ccc(NCc2ccc3oc(C(=O)O)cc3c2)cc1C(F)(F)F tested_on="hERG (human ether-a-go-go-related gene) potassium channel (Homo sapiens, UniProt Q12809)" property_measured="% change@TL7@10 uM" observed_value=167

====

Reported % change@TL7@10 uM values are given for each entry in this list.
# tested-on: hERG (human ether-a-go-go-related gene) potassium channel (Homo sapiens)
# assay-method-text: QPatch automated patch-clamp hERG activator 4-concentration EC50 assay
# condition-notes: increase of hERG tail current amplitude at 7 second (TL7); 10 uM; hERG stably expressed in CHO cells
property-measured: % change@TL7@10 uM (%)

molecule_smiles=FC(F)(F)Oc1ccc(NCc2cc3oc(-c4nnn[nH]4)cc3cc2Cl)cc1C(F)(F)F observed_value=264
molecule_smiles=Fc1cc(NCc2cc3oc(-c4nnn[nH]4)cc3cc2F)ccc1Cl observed_value=138
molecule_smiles=O=C(O)c1cc2ccc(CNc3ccc(C(F)(F)F)c(C(F)(F)F)c3)cc2o1 observed_value=156
molecule_smiles=FC(F)Oc1ccc(NCc2cc3oc(-c4nnn[nH]4)cc3cc2Br)cc1C(F)(F)F observed_value=356
molecule_smiles=Fc1cc2cc(-c3nnn[nH]3)oc2cc1CNc1ccc(OCC(F)(F)F)c(C(F)(F)F)c1 observed_value=240
molecule_smiles=CCOc1ccc(NCc2cc3oc(-c4nnn[nH]4)cc3cc2Br)cc1C(F)(F)F observed_value=262
molecule_smiles=CCOc1ccc(NCc2ccc3c(C(F)(F)F)c(-c4nnn[nH]4)oc3c2)cc1C(F)(F)F observed_value=88
molecule_smiles=CCc1ccc(NCc2ccc3oc(-c4nnn[nH]4)cc3c2)cc1C(F)(F)F observed_value=108
molecule_smiles=O=C(O)c1cc2ccc(CNc3cc(C(F)(F)F)cc(C(F)(F)F)c3)cc2o1 observed_value=31
molecule_smiles=CCCc1ccc(NCc2cc3cc(-c4nnn[nH]4)oc3cc2F)cc1C(F)(F)F observed_value=142
molecule_smiles=Clc1cc(NNCc2ccc3cc(-c4nn[nH]n4)oc3c2)cc(Cl)c1Cl observed_value=145
molecule_smiles=Fc1cc(NCc2ccc3cc(-c4nn[nH]n4)oc3c2)cc(Br)c1F observed_value=180
molecule_smiles=FC(F)(F)Sc1ccc(NCc2ccc3cc(-c4nn[nH]n4)oc3c2)cc1Cl observed_value=340
molecule_smiles=CCc1ccc(NCc2ccc3cc(C(=O)O)oc3c2)cc1C(F)(F)F observed_value=156
molecule_smiles=Fc1cc2cc(-c3nnn[nH]3)oc2cc1CNc1ccc(OCC(F)(F)F)c(Cl)c1 observed_value=222
molecule_smiles=O=C(O)c1cc2ccc(CNc3ccc4c(c3)OC(F)(F)C(F)(F)O4)cc2o1 observed_value=194
molecule_smiles=Fc1cc2cc(-c3nnn[nH]3)oc2cc1CNc1ccc(C(F)(F)F)c(Cl)c1 observed_value=169
molecule_smiles=Cc1cc2cc(NCc3cc4oc(-c5nnn[nH]5)cc4cc3Cl)cc(Cl)c2o1 observed_value=108
molecule_smiles=Clc1cc2cc(-c3nnn[nH]3)oc2cc1CNc1cc(Cl)c(Cl)c(Cl)c1 observed_value=162
molecule_smiles=Cc1cc(NCc2cc3oc(-c4nnn[nH]4)cc3cc2Cl)cc(C(F)(F)F)c1 observed_value=144
molecule_smiles=CCOc1c(Cl)cc(NCc2cc3oc(-c4nnn[nH]4)cc3cc2Cl)cc1Cl observed_value=146
molecule_smiles=COc1ccc(NCc2ccc3cc(-c4nn[nH]n4)oc3c2)cc1Br observed_value=273
molecule_smiles=O=C(O)c1cc2cc(Cl)c(CNc3ccc(OC(F)F)c(C(F)(F)F)c3)cc2o1 observed_value=176
molecule_smiles=N#CCOc1ccc(NCc2cc3oc(-c4nnn[nH]4)cc3cc2Br)cc1C(F)(F)F observed_value=370
molecule_smiles=Clc1ccc(NCc2ccc3cc(-c4nn[nH]n4)oc3c2)cc1 observed_value=192
molecule_smiles=FC(F)(F)c1ccc(NCc2cc3oc(-c4nnn[nH]4)cc3cc2Cl)cc1C(F)(F)F observed_value=196
molecule_smiles=CCOc1ccc(NCc2ccc3cc(-c4nn[nH]n4)oc3c2)cc1Br observed_value=284
molecule_smiles=CCCc1ccc(NCc2ccc3c(C(F)(F)F)c(-c4nnn[nH]4)oc3c2)cc1C(F)(F)F observed_value=90
molecule_smiles=CCCc1ccc(NCc2cc3oc(-c4nnn[nH]4)cc3cc2Cl)cc1C(F)(F)F observed_value=218
molecule_smiles=Fc1c(CNc2cc(C(F)(F)F)c(Br)c(C(F)(F)F)c2)ccc2cc(-c3nnn[nH]3)oc12 observed_value=308
molecule_smiles=CCCc1c(C)cc(NCc2ccc3oc(-c4nnn[nH]4)cc3c2)cc1Cl observed_value=221
molecule_smiles=COc1ccc(NCc2ccc3cc(C(=O)O)oc3c2)cc1Cl observed_value=41
molecule_smiles=FC(F)(F)COc1ccc(NCc2ccc3cc(-c4nn[nH]n4)oc3c2)cc1C(F)(F)F observed_value=261
molecule_smiles=FC(F)(F)Oc1ccc(NCc2ccc3c(C(F)(F)F)c(-c4nnn[nH]4)oc3c2)cc1Br observed_value=131
